tested.target: Delta-type opioid receptor (Mus musculus) (UniProt P32300)
Sequence (P32300 whole entry): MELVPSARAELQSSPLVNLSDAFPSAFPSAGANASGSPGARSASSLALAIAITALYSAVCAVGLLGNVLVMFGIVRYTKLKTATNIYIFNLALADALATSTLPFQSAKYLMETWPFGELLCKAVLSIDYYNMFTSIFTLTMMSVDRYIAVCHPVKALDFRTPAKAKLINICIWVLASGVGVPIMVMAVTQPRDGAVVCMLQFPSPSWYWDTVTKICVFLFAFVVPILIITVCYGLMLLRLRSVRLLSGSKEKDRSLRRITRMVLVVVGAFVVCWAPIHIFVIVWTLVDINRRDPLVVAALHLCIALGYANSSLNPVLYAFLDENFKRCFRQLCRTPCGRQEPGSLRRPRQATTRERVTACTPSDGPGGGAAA
test.protocol: Opioid receptor delta 1 antagonistic activity was measured by the displacement of DADLE in the mouse vas deferens at tha concentration of 200 nM
Type: functional

>  <smi>
COc1ccc2[nH]c3c(c2c1)C[C@@]1(O)[C@H]2Cc4ccc(O)c5c4[C@@]1(CCN2CC1CC1)[C@H]3O5

>  <IC50 ratio>
53

$$$$
>  <smi>
Oc1ccc2c3c1O[C@H]1c4[nH]c5ccc(F)cc5c4C[C@@]4(O)[C@@H](C2)N(CC2CC2)CC[C@]314

>  <IC50 ratio>
104

$$$$
>  <smi>
O=[N+]([O-])c1ccc2[nH]c3c(c2c1)C[C@@]1(O)[C@H]2Cc4ccc(O)c5c4[C@@]1(CCN2CC1CC1)[C@H]3O5

>  <IC50 ratio>
2.4

$$$$
>  <smi>
Cc1ccc2[nH]c3c(c2c1)C[C@@]1(O)[C@H]2Cc4ccc(O)c5c4[C@@]1(CCN2CC1CC1)[C@H]3O5

>  <IC50 ratio>
55.4

$$$$
